protocol: Pharmacokinetics and bioavailability test in rats (Example 60)
Format: in vivo
run-conditions: rat, in vivo; SD rats, IP 10 mg/kg
measured-parameter: Cmax (ng/mL)
Kindly answer with a numeric value in ng/mL, unit omitted.

Sample O=C1CCC(N2C(=O)c3ccc(N4CC(CN5CCN(c6ccc(N(C(=O)NCc7ccccc7)[C@H]7CC[C@H](Nc8ncc9ccccc9n8)CC7)cc6)CC5)C4)cc3C2=O)C(=O)N1 (stereo partly shown) — what was its Cmax?
662

* * *

protocol: Pharmacokinetics and bioavailability test in rats (Example 57)
Assay type: in vivo
run-conditions: Sprague-Dawley, rat, plasma; SD rats, Oral 10 mg/kg; read-out: MRT(0-t)
measured-parameter: MRT last (h)
Kindly answer with a numeric value in h, unit omitted.

Sample N#Cc1ccc(N[C@H]2CC[C@H](N(C(=O)NCc3ccccc3)c3ccc(N4CCN(C5CCN(c6ccc7c(c6)C(=O)N(C6CCC(=O)NC6=O)C7=O)CC5)CC4)cc3)CC2)nc1 (stereo partly shown) — what was its MRT last?
6.06

* * *

protocol: Pharmacokinetics and bioavailability test in rats (Example 60)
Format: in vivo
run-conditions: rat, in vivo; SD rats, IP 10 mg/kg
measured-parameter: half-life (h)
Kindly answer with a numeric value in h, unit omitted.

Sample O=C1CCC(N2C(=O)c3ccc(N4CC(CN5CCN(c6ccc(N(C(=O)NCc7ccccc7)[C@H]7CC[C@H](Nc8ncc9ccccc9n8)CC7)cc6)CC5)C4)cc3C2=O)C(=O)N1 (stereo partly shown) — what was its half-life?
26.4

* * *

protocol: Pharmacokinetics and bioavailability test in rats (Example 57)
Format: in vivo
run-conditions: Sprague-Dawley, rat, plasma, iv; SD rats, i.v. 2.5 mg/kg
measured-parameter: AUC(0-inf) (µg·h/mL)
Kindly answer with a numeric value in µg·h/mL, unit omitted.

Sample N#Cc1ccc(N[C@H]2CC[C@H](N(C(=O)NCc3ccccc3)c3ccc(N4CCN(C5CCN(c6ccc7c(c6)C(=O)N(C6CCC(=O)NC6=O)C7=O)CC5)CC4)cc3)CC2)nc1 (stereo partly shown) [zlc-4-93] — what was its AUC(0-inf)?
4.74

* * *

protocol: Pharmacokinetics and bioavailability test in rats (Example 60)
Format: in vivo
run-conditions: rat, in vivo; SD rats, PO 10 mg/kg
measured-parameter: Cmax (ng/mL)
Kindly answer with a numeric value in ng/mL, unit omitted.

Sample answers from the record:
molecule="O=C1CCC(N2C(=O)c3ccc(N4CC(CN5CCN(c6ccc(N(C(=O)NCc7ccccc7)[C@H]7CC[C@H](Nc8ncc9ccccc9n8)CC7)cc6)CC5)C4)cc3C2=O)C(=O)N1 (stereo partly drawn)" measured_parameter=Cmax reported_result=148
molecule="O=C1CCC(N2C(=O)c3cccc(OCC(=O)N4CCN(c5ccc(N(C(=O)NCc6ccccc6)[C@H]6CC[C@H](Nc7ncc8ccccc8n7)CC6)cc5)CC4)c3C2=O)C(=O)N1 (stereo partly drawn)" measured_parameter=Cmax reported_result=121

Sample O=C1CCC(N2C(=O)c3ccc(N4CCN(C5CCN(c6ccc(N(C(=O)NCc7ccccc7)[C@H]7CC[C@H](Nc8ncc9ccccc9n8)CC7)cc6)CC5)CC4)cc3C2=O)C(=O)N1 (stereo partly drawn) — what was its Cmax?
291

* * *

Quick reference for F among some compounds
protocol: Pharmacokinetics and bioavailability test in rats (Example 60)
Type: in vivo
run-conditions: SD rats, PO 10 mg/kg, bioavailability calculated from AUC
Kindly answer with a numeric value in %, unit omitted.

Sample answers from the record:
compound="O=C1CCC(N2C(=O)c3ccc(N4CCC(N5CCN(c6ccc(N(C(=O)NCc7ccccc7)[C@H]7CC[C@H](Nc8ncc9ccccc9n8)CC7)cc6F)CC5)CC4)cc3C2=O)C(=O)N1 (stereo partly shown)" measured_parameter=F reported_result=30.13
compound="O=C1CCC(N2C(=O)c3cc(F)c(N4CCC(N5CCN(c6ccc(N(C(=O)NCc7ccccc7)[C@H]7CC[C@H](Nc8ncc9ccccc9n8)CC7)cn6)CC5)CC4)cc3C2=O)C(=O)N1 (stereo partly shown)" measured_parameter=F reported_result=39.16

Sample O=C1CCC(N2C(=O)c3ccc(N4CCC(N5CCN(c6ccc(N(C(=O)NCc7ccccc7F)[C@H]7CC[C@H](Nc8ncc9ccccc9n8)CC7)cc6)CC5)CC4)cc3C2=O)C(=O)N1 (stereo partly shown) — what was its F?
16.95

Sample O=C1CCC(N2C(=O)c3ccc(N4CC(CN5CCN(c6ccc(N(C(=O)NCc7ccccc7)[C@H]7CC[C@H](Nc8ncc9ccccc9n8)CC7)cc6)CC5)C4)cc3C2=O)C(=O)N1 (stereo partly shown) — what was its F?
17.28

Sample O=C1CCC(N2C(=O)c3cccc(OCC(=O)N4CCN(c5ccc(N(C(=O)NCc6ccccc6)[C@H]6CC[C@H](Nc7ncc8ccccc8n7)CC6)cc5)CC4)c3C2=O)C(=O)N1 (stereo partly shown) — what was its F?
5.04

Sample O=C1CCC(N2C(=O)c3ccc(N4CCC(CN5CCN(c6ccc(N(C(=O)NCc7ccccc7)[C@H]7CC[C@H](Nc8ncc9ccccc9n8)CC7)cc6)CC5)CC4)cc3C2=O)C(=O)N1 (stereo partly shown) — what was its F?
23.89

Sample O=C1CCC(N2C(=O)c3ccc(N4CCN(C5CCN(c6ccc(N(C(=O)NCc7ccccc7)[C@H]7CC[C@H](Nc8ncc9ccccc9n8)CC7)cc6)CC5)CC4)cc3C2=O)C(=O)N1 (stereo partly shown) — what was its F?
13.51

Sample O=C1CCC(N2C(=O)c3ccc(N4CCC(N5CCN(c6ccc(N(C(=O)NCc7ccccc7)[C@H]7CC[C@H](Nc8ncc9ccccc9n8)CC7)cn6)CC5)CC4)cc3C2=O)C(=O)N1 (stereo partly shown) — what was its F?
15.87

Sample O=C1CCC(N2C(=O)c3ccc(N4CCC(N5CCN(c6ccc(N(C(=O)NCc7ccccc7)[C@H]7CC[C@H](Nc8ncc9ccccc9n8)CC7)cc6)CC5)CC4)cc3C2=O)C(=O)N1 (stereo partly shown) — what was its F?
26.64

Sample O=C1CCC(N2C(=O)c3cc(F)c(N4CCC(N5CCN(c6ccc(N(C(=O)NCc7ccccc7)[C@H]7CC[C@H](Nc8ncc9ccccc9n8)CC7)cc6)CC5)CC4)cc3C2=O)C(=O)N1 (stereo partly shown) — what was its F?
39.60

* * *

protocol: Pharmacokinetics and bioavailability test in rats (Example 57)
Assay type: in vivo
run-conditions: Sprague-Dawley, rat, plasma, iv; SD rats, i.v. 2.5 mg/kg
measured-parameter: Tmax
Please state the number and follow it with the unit.

Sample N#Cc1ccc(N[C@H]2CC[C@H](N(C(=O)NCc3ccccc3)c3ccc(N4CCN(C5CCN(c6ccc7c(c6)C(=O)N(C6CCC(=O)NC6=O)C7=O)CC5)CC4)cc3)CC2)nc1 (stereo partly shown) [zlc-4-93] — what was its Tmax?
4.8 min

* * *

protocol: Pharmacokinetics and bioavailability test in rats (Example 57)
Type: in vivo
run-conditions: Sprague-Dawley, rat, plasma; SD rats, Oral 10 mg/kg
Experimental: Pharmacokinetics and bioavailability tests in rats. SD rats were given a single oral (10 mg/kg), intravenous (2.5 mg/kg) and intraperitoneal (10 mg/kg) dose, followed by animal blood sample collection at appropriate time points. Heparin was added for anticoagulation, and the samples were centrifuged at 8000 rpm for 6 min. […] The oral bioavailability of the compounds was calculated based on the area under the plasma concentration-time curve (AUC) data. […]
measured-parameter: AUC(0-t) (ng·h/mL)
Kindly answer with a numeric value in ng·h/mL, unit omitted.

Sample N#Cc1ccc(N[C@H]2CC[C@H](N(C(=O)NCc3ccccc3)c3ccc(N4CCN(C5CCN(c6ccc7c(c6)C(=O)N(C6CCC(=O)NC6=O)C7=O)CC5)CC4)cc3)CC2)nc1 (stereo partly shown) [zlc-4-93] — what was its AUC(0-t)?
3110

* * *

protocol: Pharmacokinetics and bioavailability test in rats (Example 57)
Type: in vivo
run-conditions: Sprague-Dawley, rat, plasma; SD rats, Oral 10 mg/kg
measured-parameter: half-life (h)
Kindly answer with a numeric value in h, unit omitted.

Sample N#Cc1ccc(N[C@H]2CC[C@H](N(C(=O)NCc3ccccc3)c3ccc(N4CCN(C5CCN(c6ccc7c(c6)C(=O)N(C6CCC(=O)NC6=O)C7=O)CC5)CC4)cc3)CC2)nc1 (stereo partly shown) — what was its half-life?
3.04

* * *

protocol: Pharmacokinetics and bioavailability test in rats (Example 57)
Type: in vivo
run-conditions: Sprague-Dawley, rat, plasma; SD rats, Oral 10 mg/kg; read-out: MRT(0-∞)
measured-parameter: MRT inf (h)
Kindly answer with a numeric value in h, unit omitted.

Sample N#Cc1ccc(N[C@H]2CC[C@H](N(C(=O)NCc3ccccc3)c3ccc(N4CCN(C5CCN(c6ccc7c(c6)C(=O)N(C6CCC(=O)NC6=O)C7=O)CC5)CC4)cc3)CC2)nc1 (stereo partly shown) — what was its MRT inf?
6.19

* * *

protocol: Pharmacokinetics and bioavailability test in rats (Example 57)
Type: in vivo
run-conditions: rat, plasma; SD rats, Oral 10 mg/kg
measured-parameter: Tmax (h)
Kindly answer with a numeric value in h, unit omitted.

Sample N#Cc1ccc(N[C@H]2CC[C@H](N(C(=O)NCc3ccccc3)c3ccc(N4CCN(C5CCN(c6cc7c(cc6F)C(=O)N(C6CCC(=O)NC6=O)C7=O)CC5)CC4)cc3)CC2)nc1 (stereo partly shown) — what was its Tmax?
4.67
